This section presents molecules with their documented NIH3T3_AUC values.
# Tested on: NIH-3T3 cells
# RUN DESCRIPTION: qHTS cell viability (CellTiter-Glo, 72 h; primary screen), control cell line
# Format: cell-based, mouse
Counter-ions that a name gives are not always drawn.

- MOLECULE: "COC[C@H]1OC(=O)c2coc3c2[C@@]1(C)C1=C(C3=O)[C@@H]2CC[C@H](O)[C@@]2(C)C[C@H]1OC(C)=O [17_-hydroxy Wortmannin]"
  NIH3T3_AUC: 465.601
- MOLECULE: "C#CCN(C)[C@H](C)Cc1ccccc1 [Selegiline hydrochloride]"
  NIH3T3_AUC: 471.047
- MOLECULE: "CN(C)C(=O)Nc1ccc(Cl)c(Cl)c1"
  NIH3T3_AUC: 473.572
- MOLECULE: "O=c1cccc2n1C[C@@H]1CNC[C@H]2C1"
  NIH3T3_AUC: 477.468
- MOLECULE: "COc1cc(NC(C)CCCN)c2ncccc2c1 (stereo not shown) [Primaquine diphosphate]"
  NIH3T3_AUC: 490.172
- MOLECULE: "CC(Cc1ccccc1)NCCn1cnc2c1c(=O)n(C)c(=O)n2C (stereo not shown) [Fenethylline hydrochloride]"
  NIH3T3_AUC: 480.657
- MOLECULE: "CC(=O)OC1(c2ccccc2)CCN(CCc2ccccc2)CC1"
  NIH3T3_AUC: 473.448
- MOLECULE: "CS(=O)(=O)Oc1ccc2c(NC(N)=O)c(C(=O)c3ccc(Cl)cc3Cl)oc2c1"
  NIH3T3_AUC: 472.494
- MOLECULE: "Cc1ccc([N+](=O)[O-])[c]2c1[O][Hg]2"
  NIH3T3_AUC: 388.302
- MOLECULE: "CCOc1cc(N2CCC(O)CC2)ccc1Nc1ncc2c(n1)N(C)c1ccccc1C(=O)N2C"
  NIH3T3_AUC: 462.049
- MOLECULE: "CC(N[C@H]1CCCC[C@@H]1NC(=O)c1ccc(Cl)cc1)c1cccc2ccccc12 (stereo partly shown)"
  NIH3T3_AUC: 459.862
- MOLECULE: "CC(C)(C)CC(C)(C)c1ccc(OCCOCC[N+](C)(C)Cc2ccccc2)cc1 [Benzethonium chloride]"
  NIH3T3_AUC: 461.959
- MOLECULE: "CC(C)CN(C[C@@H](O)[C@H](Cc1ccccc1)NC(=O)O[C@H]1CO[C@H]2OCC[C@H]21)S(=O)(=O)c1ccc(N)cc1"
  NIH3T3_AUC: 481.353
- MOLECULE: "COc1cc(CCN)c(OC)cc1Br.Cl"
  NIH3T3_AUC: 468.152
- MOLECULE: "CCCCCCCCCCCC[N+](C)(C)CCOc1ccccc1 [Domiphen bromide]"
  NIH3T3_AUC: 435.478
- MOLECULE: "CCN(CC)CCc1c[nH]c2ccccc12.O=C(O)/C=C/C(=O)O [N,N-Diethyltryptamine fumarate]"
  NIH3T3_AUC: 478.712
- MOLECULE: "COc1cc(C[C@@H](C)N)c(OC)cc1C.Cl"
  NIH3T3_AUC: 358.481
- MOLECULE: "CN(C)CCc1c[nH]c2ccc(O)cc12"
  NIH3T3_AUC: 494.482
- MOLECULE: "CCC(=O)O[C@@H]1C=C2CCC3C(CCC4(C)C3CC[C@@H]4OC(=O)CC)C2CC1 (stereo partly shown) [Bolandiol dipropionate]"
  NIH3T3_AUC: 491.81
